Experiment: qHTS assay for small molecule antagonists of peroxisome proliferator-activated receptor delta signaling (AID 588535);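 further: cells co-treated with a PPAR-delta agonist as stimulator during compound exposure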
Conditions: HEK293T PPARd-UAS-bla, beta-lactamase FRET ratio, 18 h; 460 nm channel
Records with an inconclusive call do not appear.
assay-metric: max response (%)
Response body: numeric value in %, unit text excluded.

-- ask Return reported max response; argument: CC(O)C(=O)O (centres undefined)
-- reply -0.0545

-- ask Return reported max response; argument: "Nc1ccc(C(=O)O)cc1"
-- reply 41.6

-- ask Return reported max response; argument: "CN(C)/N=N/c1nc[nH]c1C(N)=O"
-- reply 24

// switching to the query molecule
-- ask Return reported max response; argument: "CN(C)C(=S)SC(=S)N(C)C"
-- reply 6.78

###

Experiment: Cell Viability - LYMP2-013 (AID 970);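 further: cells exposed to compound for 24 h at 37 °C; nearly all actives have a fitted effect of over 55% in size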
Conditions: LYMP2-013 lymphoblastoid cells viability; series mostly up to 92.2 µM
Description: NIH Chemical Genomics Center [NCGC] NIH Molecular Libraries Screening Centers Network [MLSCN] National Institutes of Environmental Health Sciences [NIEHS] National Toxicology Program [NTP] We have developed a 1536-well cell-based assay for quantitative high throughput screening (qHTS) against a number of cell lines to determine in vitro cytotoxicity of small molecules. […] 8. Detection; Luminescence; Viewlux plate reader […]
Results filed as inconclusive are left out. The source made the active and inactive calls. Calls follow the shape of the dose curve; as a rule, active = well fitted cell-killing curve with a large enough effect; inconclusive = small, poorly fitted or top-dose-only effect; inactive = flat fitted curve, though single readings scatter.
Field 'call' accepts Yes for active, No for inactive

Reference set, count: 6
-- ask Record lookup: outcome of this test for "CC/C(=C(/CC)c1ccc(O)cc1)c1ccc(O)cc1" ?
-- reply No

-- ask Record lookup: outcome of this test for "O=C(O)CCCCC(=O)O" ?
-- reply No

-- ask Record lookup: outcome of this test for "CC(C)(C)CC(C)(C)c1ccc(OCCOCC[N+](C)(C)Cc2ccccc2)cc1" ?
-- reply Yes

-- ask Record lookup: outcome of this test for "O=C1OC(c2ccc(O)cc2)(c2ccc(O)cc2)c2ccccc21" ?
-- reply No

-- ask Record lookup: outcome of this test for CC(O)C(=O)O (configuration not stated) ?
-- reply No

-- ask Record lookup: outcome of this test for "COc1cccc2c1C(=O)c1c(O)c3c(c(O)c1C2=O)C[C@@](O)(C(C)=O)C[C@@H]3O[C@H]1C[C@H](N)[C@H](O)[C@H](C)O1" ?
-- reply Yes

---
-- ask Record lookup: outcome of this test for "COc1cccc2c1C(=O)c1c(O)c3c(c(O)c1C2=O)C[C@@](O)(C(=O)CO)C[C@@H]3O[C@H]1C[C@H](N)[C@H](O)[C@H](C)O1" ?
-- reply Yes

###

Tested on: HaCat
Test: Cytotoxic Profiling of Annotated Libraries Using Quantitative High-Throughput Screening (AID 1296008); further: nearly all actives have a fitted effect of over 60% in size; further: potency means the concentration at half of the fitted maximal effect
Conditions: Five cell lines viability, CellTiter-Glo ATP luminescence, 48-72 h
Records with an inconclusive call do not appear. The source made the active and inactive calls. Calls come from the whole dose curve; as a rule, active = well fitted inhibition curve with a large enough effect; inconclusive = small, poorly fitted or top-dose-only effect; inactive = flat fitted curve, though single readings scatter.
assay-metric: Potency

-- ask Return reported Potency; argument: "O=C1c2ccccc2C(=O)C1c1ccccc1"
-- reply inactive

-- ask Return reported Potency; argument: "COCc1c(C(C)C)nc(C(C)C)c(/C=C/[C@@H](O)C[C@@H](O)CC(=O)O)c1-c1ccc(F)cc1"
-- reply 841 nM (active)

-- ask Return reported Potency; argument: "CN(C)CCOc1ccccc1Cc1ccccc1"
-- reply inactive

-- ask Return reported Potency; argument: "COc1ccc(CN2CCN(C(c3ccc(F)cc3)c3ccc(F)cc3)CC2)c(OC)c1OC"
-- reply inactive

// switching to the query compound
-- ask Return reported Potency; argument: "NC[C@H]1O[C@H](O[C@H]2[C@H](O)[C@@H](O[C@H]3O[C@H](CO)[C@@H](O)[C@H](N)[C@H]3O)[C@H](N)C[C@@H]2N)[C@H](N)[C@@H](O)[C@@H]1O"
-- reply inactive

###

Test system: W2
Assay: qHTS profiling for inhibitors of Plasmodium falciparum proliferation (AID 504749); further: nearly all actives have a fitted effect of over 60% in size
Conditions: P. falciparum in erythrocytes, SYBR Green DNA, 72 h; series mostly up to 28.7 µM
Inconclusive results are not listed. Active and inactive are the calls of the source. Calls follow the shape of the dose curve; as a rule, active = well fitted inhibition curve with a large enough effect; inconclusive = small, poorly fitted or top-dose-only effect; inactive = flat fitted curve, though single readings scatter.
Field 'call' accepts YES for active, NO for inactive

Reference set, count: 5
-- ask Record lookup: outcome of this test for "CC(=O)N(O)CCCCCNC(=O)CCC(=O)N(O)CCCCCNC(=O)CCC(=O)N(O)CCCCCN" ?
-- reply NO

-- ask Record lookup: outcome of this test for Cc1ccc(C(=O)C(C)CN2CCCCC2)cc1 (configuration not stated) ?
-- reply YES

-- ask Record lookup: outcome of this test for CCC(C(=O)OCCN(CC)CC)c1ccccc1 (configuration not stated) ?
-- reply YES

-- ask Record lookup: outcome of this test for "Cc1cc(=O)n(-c2ccccc2)n1C" ?
-- reply NO

-- ask Record lookup: outcome of this test for "COc1cc(OC)cc(OC)c1" ?
-- reply NO

---
-- ask Record lookup: outcome of this test for "NCCCC[C@H](N[C@@H](CCc1ccccc1)C(=O)O)C(=O)N1CCC[C@H]1C(=O)O" ?
-- reply NO

-- ask Record lookup: outcome of this test for "O=c1ccc2ccccc2o1" ?
-- reply NO

-- ask Record lookup: outcome of this test for "CC(C)(C(=O)c1cccnc1)c1cccnc1" ?
-- reply NO

-- ask Record lookup: outcome of this test for "Cc1cccc(C)c1NC(=O)CN1CCN(CCCC(c2ccc(F)cc2)c2ccc(F)cc2)CC1" ?
-- reply YES

-- ask Record lookup: outcome of this test for "C[C@]12CC[C@@H]3c4ccc(O)cc4CC[C@H]3[C@@H]1CC[C@@H]2O" ?
-- reply NO

-- ask Record lookup: outcome of this test for "O=C1CCC(c2ccc(-n3ccnc3)cc2)=NN1" ?
-- reply NO

-- ask Record lookup: outcome of this test for "NCCc1ccn[nH]1" ?
-- reply NO

###

Tested on: MKL-2
Test: qHTS assay to identify novel small-molecules to repurpose for Merkel cell carcinoma treatment (AID 1296009); further: on the % scale 0 is the no-effect control and ±100 the full control effect; nearly all actives have a fitted effect of over 60% in size
Conditions: MCC and control cell lines, CellTiter-Glo viability, 72 h; series mostly up to 46 µM
Results filed as inconclusive are left out. Calls of active or inactive are those of the source. Calls follow the shape of the dose curve; as a rule, active = well fitted inhibition curve with a large enough effect; inconclusive = small, poorly fitted or top-dose-only effect; inactive = flat fitted curve, though single readings scatter.
Field 'call' accepts active, inactive

Reference set, count: 5
-- ask Record lookup: outcome of this test for CCCC(=O)Nc1ccc(OCC(O)CNC(C)C)c(C(C)=O)c1 (stereo unspecified) ?
-- reply inactive

-- ask Record lookup: outcome of this test for "Cc1c(N(C)CS(=O)(=O)O)c(=O)n(-c2ccccc2)n1C" ?
-- reply inactive

-- ask Record lookup: outcome of this test for CC(=O)CC(c1ccc([N+](=O)[O-])cc1)c1c(O)c2ccccc2oc1=O (stereo unspecified) ?
-- reply inactive

-- ask Record lookup: outcome of this test for "NCCCC[C@H](N[C@@H](CCc1ccccc1)C(=O)O)C(=O)N1CCC[C@H]1C(=O)O" ?
-- reply inactive

-- ask Record lookup: outcome of this test for "NC(=O)c1cc[n+](CC2=C(C(=O)[O-])N3C(=O)[C@@H](NC(=O)Cc4cccs4)[C@H]3SC2)cc1" ?
-- reply inactive

---
-- ask Record lookup: outcome of this test for "OC(CCN1CCCCC1)(c1ccccc1)c1ccccc1" ?
-- reply inactive

-- ask Record lookup: outcome of this test for "CN=C(NC#N)NCCSCc1csc(N=C(N)N)n1" ?
-- reply inactive

###

# Z-AUC per record follows
Assay: qHTS drug screen for cell cycle checkpoint inhibitors in PARPi-resistant BRCA-mutant ovarian cancer cell lines. (AID 1963452)
Conditions: PEO1/OlaR viability, CellTiter-Glo luminescence, 96 h; measured here: PEO4 Z-AUC; stronger effect = lower value
Lab note: record the figure alone, no unit after it.

Some molecules with recorded Z-AUC:
-- ask Return reported Z-AUC; argument: "COc1cccc2c1C(=O)c1c(O)c3c(c(O)c1C2=O)C[C@@](O)(C(C)=O)C[C@@H]3O[C@H]1C[C@H](N)[C@H](O)[C@H](C)O1"
-- reply -2.06

-- ask Return reported Z-AUC; argument: "C[C@]12C=CC(=O)C=C1CC[C@@H]1[C@@H]2[C@@H](O)C[C@@]2(C)[C@H]1CC[C@]2(O)C(=O)CO"
-- reply -0.444

-- ask Return reported Z-AUC; argument: "C[C@]12CC[C@@H]3c4ccc(O)cc4CC[C@H]3[C@@H]1C[C@@H](O)[C@@H]2O"
-- reply 0.225

-- ask Return reported Z-AUC; argument: "C[C@]12CC[C@@H]3c4ccc(O)cc4CC[C@H]3[C@@H]1CC[C@@H]2O"
-- reply 0.419

-- ask Return reported Z-AUC; argument: "COc1cccc2c1C(=O)c1c(O)c3c(c(O)c1C2=O)C[C@@](O)(C(=O)CO)C[C@@H]3O[C@H]1C[C@H](N)[C@H](O)[C@H](C)O1"
-- reply -0.369

---
-- ask Return reported Z-AUC; argument: "CC[C@H](C)C(=O)O[C@H]1CCC=C2C=C[C@H](C)[C@H](CC[C@@H]3C[C@@H](O)CC(=O)O3)[C@H]21"
-- reply 1.15

-- ask Return reported Z-AUC; argument: "CC(C)n1nc(-c2cc3cc(O)ccc3[nH]2)c2c(N)ncnc21"
-- reply -1.52

-- ask Return reported Z-AUC; argument: "CC(=O)N(O)CCCCCNC(=O)CCC(=O)N(O)CCCCCNC(=O)CCC(=O)N(O)CCCCCN"
-- reply -0.683
